Readings of Ka for the listed compounds
# Test system: Ac2-L-Lys-D-Ala-D-Ala peptide
# experiment: Association constant with Ac2-L-Lys-D-Ala-D-Ala
measured.attribute: Ka (M⁻¹)

>>> numeric_result("CN(C)CCCCCCCNC(=O)[C@H]1NC(=O)[C@H]2NC(=O)[C@H](NC(=O)[C@@H]3NC(=O)[C@H]4NC(=O)[C@@H](Cc5ccc(c(Cl)c5)Oc5cc3cc(c5O)Oc3ccc(cc3Cl)[C@H]2O)NC(=O)[C@H](N)c2ccc(O)c(c2)Oc2cc(O)cc4c2)c2ccc(O)c(c2)-c2c(O)cc(O)cc21")
50000
>>> numeric_result("NCCCNC(=O)[C@H]1NC(=O)[C@H]2NC(=O)[C@H](NC(=O)[C@@H]3NC(=O)[C@H]4NC(=O)[C@@H](Cc5ccc(c(Cl)c5)Oc5cc3cc(c5O)Oc3ccc(cc3Cl)[C@H]2O)NC(=O)[C@H](N)c2ccc(O)c(c2)Oc2cc(O)cc4c2)c2ccc(O)c(c2)-c2c(O)cc(O)cc21")
26000
>>> numeric_result("CC(=O)N[C@@H]1[C@H](O[C@@H]2c3ccc(c(Cl)c3)Oc3cc4cc(c3O)Oc3ccc(cc3Cl)C[C@H]3NC(=O)[C@H](N)c5ccc(O)c(c5)Oc5cc(O)cc(c5)[C@H](NC3=O)C(=O)N[C@H]4C(=O)N[C@H]3C(=O)N[C@@H]2C(=O)N[C@H](C(=O)N2CCSCC2)c2cc(O)cc(O[C@H]4O[C@H](CO)[C@@H](O)[C@@H](O)[C@@H]4O)c2-c2cc3ccc2O)O[C@@H](CO)[C@@H](O)[C@@H]1O")
120000
>>> numeric_result("CC(=O)N[C@@H]1[C@H](O[C@@H]2c3ccc(c(Cl)c3)Oc3cc4cc(c3O)Oc3ccc(cc3Cl)C[C@H]3NC(=O)[C@H](N)c5ccc(O)c(c5)Oc5cc(O)cc(c5)[C@H](NC3=O)C(=O)N[C@H]4C(=O)N[C@H]3C(=O)N[C@@H]2C(=O)N[C@H](C(=O)O)c2cc(O)cc(O)c2-c2cc3ccc2O)O[C@@H](CO)[C@@H](O)[C@@H]1O")
32000
>>> numeric_result("CCOC(=O)CNC(=O)[C@H]1NC(=O)[C@H]2NC(=O)[C@H](NC(=O)[C@@H]3NC(=O)[C@H]4NC(=O)[C@@H](Cc5ccc(c(Cl)c5)Oc5cc3cc(c5O[C@@H]3O[C@@H](CO)[C@@H](O)[C@H](O)[C@@H]3NC(=O)CCCCCCC(C)C)Oc3ccc(cc3Cl)[C@H]2O[C@@H]2O[C@@H](CO)[C@@H](O)[C@H](O)[C@@H]2NC(C)=O)NC(=O)[C@H](N)c2ccc(O)c(c2)Oc2cc(O)cc4c2)c2ccc(O)c(c2)-c2c(O[C@H]3O[C@H](CO)[C@@H](O)[C@@H](O)[C@@H]3O)cc(O)cc21")
120000
